target: cGMP-dependent protein kinase 2 (Homo sapiens); details: at 0.1 µM;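 note: reported figure is a mean inhibition value against PRKG2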
Measurement Name: inhibition
Output should be the measured figure followed by the unit it is expressed in.

Entry "CS(=O)(=O)CCNCc1coc(-c2ccc3ncnc(Nc4ccc(OCc5ccccc5)cc4)c3c2)c1" — recorded inhibition = 1.73%

Measured inhibition, "COc1ccc(-c2oc3ncnc(N)c3c2-c2ccc(NC(=O)Nc3cc(C(F)(F)F)ccc3F)cc2)cc1" : 3.35%

inhibition reported for this compound "Fc1cccc(COc2ccc(Nc3ncnc4sc(-c5ccco5)cc34)cc2Cl)c1" : 1.59%

* * *

inhibition overview
molecular target: Serine/threonine-protein kinase B-raf (Homo sapiens) (UniProt P15056); conditions: at 0.1 µM;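 note: mean percent inhibition of BRAF kinase activity, from the GSK PKIS kinase inhibitor screening set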
Sequence (P15056 whole entry): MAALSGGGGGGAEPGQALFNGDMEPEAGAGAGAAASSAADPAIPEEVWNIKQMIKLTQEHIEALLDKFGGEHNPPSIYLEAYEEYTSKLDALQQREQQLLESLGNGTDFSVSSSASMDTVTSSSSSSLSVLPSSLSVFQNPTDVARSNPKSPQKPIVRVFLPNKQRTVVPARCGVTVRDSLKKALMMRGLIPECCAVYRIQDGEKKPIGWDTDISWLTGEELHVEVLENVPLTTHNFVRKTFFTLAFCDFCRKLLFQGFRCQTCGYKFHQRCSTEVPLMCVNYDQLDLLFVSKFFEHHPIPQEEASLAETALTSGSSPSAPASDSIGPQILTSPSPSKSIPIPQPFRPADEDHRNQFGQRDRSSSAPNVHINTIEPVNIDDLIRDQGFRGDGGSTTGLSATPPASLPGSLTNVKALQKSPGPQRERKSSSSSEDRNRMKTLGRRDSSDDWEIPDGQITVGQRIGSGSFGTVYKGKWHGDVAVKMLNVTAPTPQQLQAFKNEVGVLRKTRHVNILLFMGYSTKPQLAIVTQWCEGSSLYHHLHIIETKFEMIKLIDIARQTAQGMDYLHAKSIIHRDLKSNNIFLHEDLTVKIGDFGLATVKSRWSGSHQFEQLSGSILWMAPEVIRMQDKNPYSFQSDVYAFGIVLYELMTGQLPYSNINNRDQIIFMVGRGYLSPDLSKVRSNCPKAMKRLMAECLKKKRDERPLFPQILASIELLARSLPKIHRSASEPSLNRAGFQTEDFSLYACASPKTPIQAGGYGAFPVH
Kindly answer with a numeric value in %, unit omitted.

As a guide, the following entries are already answered.
COc1ccc(-c2cc3c(N)ncnc3o2)cc1
-1.18
CCn1c(-c2nonc2N)nc2ccccc21
3.74
CC(=O)Nc1cccc(C#Cc2cncnc2Nc2ccc(OCc3cccc(F)c3)c(Cl)c2)c1
1.95
CC(C)COC(=O)c1ccc2c(c1)/C(=C/Nc1ccc(S(N)(=O)=O)cc1)C(=O)N2
2.66
COc1cc(N2CCN(C(C)C)CC2)ccc1Nc1nc(Nc2ccc(F)cc2C(N)=O)c2cc[nH]c2n1
2.3

// inhibition lookup, compound = "COc1ccc(CNC(=O)c2ccc(-c3cc(-c4nnc(C)o4)ccc3C)cc2)cc1" , result: 0.94

Record summary for "NS(=O)(=O)c1ccc(Nc2ncc(-c3ccccc3)o2)cc1" : reported inhibition = 5.82

inhibition measured on "COc1cc(/C=N/Nc2ncnc3[nH]ncc23)ccc1O" = 5.39

The recorded inhibition for "Clc1ccc(-c2nn3ncccc3c2-c2ccnc(Nc3ccccc3)n2)cc1" is 2.69

# inhibition of "CCn1c(-c2nonc2N)nc2cnc(Oc3cccc(NC(=O)c4ccc(N(C)C)cc4)c3)cc21" = 1.95

Input "CC(C)(CO)CNC(=O)c1ccc2c(c1)/C(=N/Nc1ccc(S(N)(=O)=O)cc1)C(=O)N2" . Output inhibition: 5.62

The compound "Nc1nc(-c2ccc(F)cc2)c(-c2ccc3ncccc3n2)s1" showed inhibition equal to 6.57

inhibition for "O=S(=O)(CCNCc1ccc(-c2ccc3ncnc(Nc4ccc(OCc5cccc(F)c5)c(Cl)c4)c3c2)o1)c1ccccc1" is 8.76
